test system: Plasmodium falciparum 3D7; assay: P. falciparum 3D7 asexual blood stage assay, Assay Procedure Version 1 (SYBR green readout); type: cell-based; details: 3D7, Erythrocyte, Version 1 of the assay procedure (no asterisk), 72 h incubation in infected erythrocytes, 10,000 nM to 0.51 nM
readout name: IC50 (µM)

// solved cases for IC50 follow
molecule	IC50, µM
C[C@@]1(c2cccc(Nc3ccc(C#N)c(Cl)c3)c2Cl)CC(=O)N(C2CCOCC2)C(=N)N1 [Example 24]	1.67
COc1ccc(F)cc1Nc1cccc([C@]2(C)CC(=O)N(C3CCOCC3)C(=N)N2)c1Cl [Example 27]	0.236
C[C@@]1(c2cccc(Nc3cn4ccccc4n3)c2Cl)CC(=O)N(C2CCOCC2)C(=N)N1 [Example 35]	2.38
COc1ccc(Nc2cccc([C@]3(C)CC(=O)N(C4CCOCC4)C(=N)N3)c2Cl)cc1 [Example 159]	2.27
C[C@@]1(c2cccc(Nc3cc(OC(F)(F)F)ccc3F)c2Cl)CC(=O)N(C2CCOCC2)C(=N)N1 [Example 22]	1.52

1 = Cc1ccc(Nc2c(F)ccc([C@]3(C)CC(=O)N(C4CCOCC4)C(=N)N3)c2Cl)cn1 [Example 207]
2 = C[C@@]1(c2cccc(Nc3cccnc3C(F)(F)F)c2Cl)CC(=O)N(C2CCOCC2)C(=N)N1 [Example 26]
3 = COc1cc(Nc2cccc([C@]3(C)CC(=O)N(C4CCOCC4)C(=N)N3)c2Cl)cc(OC)c1 [Example 161]
Input: List items by IC50 in falling order. # list labels per requested ordering
Output: 3, 1, 2
(3: 1.68 µM, 1: 0.659 µM, 2: 0.331 µM)

----------
system: Plasmodium falciparum 3D7; experiment: P. falciparum 3D7 asexual blood stage assay, Assay Procedure Version 1 (SYBR green readout); type: cell-based; conditions: 3D7, Erythrocyte, Version 1 of the assay procedure (no asterisk), 72 h incubation in infected erythrocytes, 10,000 nM to 0.51 nM
pIC50: −log10 of the molar value.
readout name: pIC50

// solved cases for pIC50 follow
compound	readout name	test result
COc1cc(F)cc(Nc2cccc([C@]3(C)CC(=O)N(C4CCOCC4)C(=N)N3)c2Cl)c1	pIC50	5.87
C[C@@]1(c2cccc(Nc3ccc(F)cc3)c2Cl)CC(=O)N(C2CCCOC2)C(=N)N1 (single isomer, unassigned)	pIC50	6.09
Cc1ccc(Nc2cccc([C@]3(C)CC(=O)N(C4CCOCC4)C(=N)N3)c2Cl)cn1	pIC50	6.55
C[C@@]1(c2cccc(Nc3ccc(C#N)cc3)c2Cl)CC(=O)N(C2CCOCC2)C(=N)N1	pIC50	6.27
C[C@@]1(c2cccc(Nc3cccc4ncccc34)c2Cl)CC(=O)N(C2CCOCC2)C(=N)N1	pIC50	5.93

P = C[C@@]1(c2cccc(Nc3ccc(N4CCOCC4)nc3)c2Cl)CC(=O)N(C2CCOCC2)C(=N)N1
Q = C[C@@]1(c2cccc(Nc3cccc(C#N)c3)c2Cl)CC(=O)N(C2CCOCC2)C(=N)N1
Input: Out of P and Q , name the one with the higher pIC50. // return label of chosen record
Output: Q
(Q: 6.48, P: 6.09)

I = C[C@@]1(c2cccc(Nc3ccc(Cl)cc3)c2Cl)CC(=O)N(C2CCOCC2)C(=N)N1
II = C[C@@]1(c2cccc(Nc3ccccc3)c2Cl)CC(=O)N([C@H]2CCOC2)C(=N)N1 (relative stereo)
III = C[C@@]1(c2cccc(Nc3ccc(C#N)c(F)c3)c2Cl)CC(=O)N([C@H]2C[C@@](C)(O)C2)C(=N)N1
IV = Cc1ncccc1Nc1cccc([C@]2(C)CC(=O)N(C3CCOCC3)C(=N)N2)c1Cl
V = C[C@@]1(c2cccc(Nc3ccccc3C#N)c2Cl)CC(=O)N(C2CCOCC2)C(=N)N1
Input: Exam item: list the entries in increasing order of pIC50. # list labels per requested ordering
Output: IV, III, I, V, II
